- Tested on: Mus musculus
- experiment.description: Compound was evaluated for diarrheal effect in mice (po administration)
- Format: functional
- measurement.context: Mus musculus, po; read-out: ED50
Entry class follows ED50: low interval = under 0.8 mg/kg, middle interval = from 0.8 mg/kg up to 1 mg/kg, high interval = 1 mg/kg and over

{"columns": ["molecule", "target.of.assay", "category"],
 "data": [
  ["CCCC[C@@](C)(OC)[C@H](O)/C=C/C1[C@H](O)C[C@H](O)[C@@H]1C/C=C\\CCCC(=O)OC (some centres not stated)", "Mus musculus", "middle interval"],
  ["CCCCC[C@H](O)/C=C/[C@@H]1[C@@H](C/C=C\\CCCC(=O)O)[C@@H](O)C[C@H]1O", "Mus musculus", "low interval"],
  ["CCCC[C@](C)(OC)[C@@H](O)/C=C/C1[C@H](O)C[C@H](O)[C@@H]1C/C=C\\CCCC(=O)OC (some centres not stated)", "Mus musculus", "high interval"],
  ["CCCC[C@](C)(OC)[C@H](O)/C=C/C1[C@H](O)CC(=O)[C@@H]1C/C=C\\CCCC(=O)OC (some centres not stated)", "Mus musculus", "low interval"],
  ["CCCC[C@@](C)(OC)[C@@H](O)/C=C/C1[C@H](O)C[C@H](O)[C@@H]1C/C=C\\CCCC(=O)OC (some centres not stated)", "Mus musculus", "high interval"],
  ["CCCC[C@@](C)(OC)[C@@H](O)/C=C/C1[C@H](O)CC(=O)[C@@H]1CCCCCCC(=O)OC (some centres not stated)", "Mus musculus", "high interval"],
  ["CCCCC[C@H](O)/C=C/[C@H]1[C@H](O)CC(=O)[C@@H]1C/C=C\\CCCC(=O)O", "Mus musculus", "high interval"],
  ["CCCC[C@](C)(OC)[C@@H](O)/C=C/C1[C@H](O)CC(=O)[C@@H]1C/C=C\\CCCC(=O)OC (some centres not stated)", "Mus musculus", "middle interval"],
  ["CCCC[C@@](C)(OC)[C@H](O)/C=C/C1[C@H](O)CC(=O)[C@@H]1CCCCCCC(=O)OC (some centres not stated)", "Mus musculus", "high interval"],
  ["CCCC[C@@](C)(OC)[C@H](O)/C=C/C1[C@H](O)CC(=O)[C@@H]1C/C=C\\CCCC(=O)OC (some centres not stated)", "Mus musculus", "low interval"],
  ["CCCC[C@](C)(OC)[C@H](O)/C=C/C1[C@H](O)C[C@H](O)[C@@H]1C/C=C\\CCCC(=O)OC (some centres not stated)", "Mus musculus", "high interval"]
]}

---

- Test system: Rattus norvegicus
- experiment.description: Compound was evaluated for antisecretion activity using stomach perfusion test in the anesthetized rat (iv administration)
- Type: functional
- measurement.context: read-out: ID50 (the source's name)
recorded.metric: log10(ED50) (log10 of the value in mg/kg)

{"columns": ["compound", "log10(ED50)"],
 "data": [
  ["CCCC[C@@](C)(OC)[C@H](O)/C=C/C1[C@H](O)C[C@H](O)[C@@H]1C/C=C\\CCCC(=O)OC (stereo partly drawn)", 0.18],
  ["CCCCC[C@H](O)/C=C/[C@H]1[C@H](O)CC(=O)[C@@H]1C/C=C\\CCCC(=O)O [DINOPROSTONE]", -1.59],
  ["CCCCC[C@H](O)/C=C/[C@H]1[C@H](O)CC(=O)[C@@H]1CCCCCCC(=O)O [ALPROSTADIL]", -1.55],
  ["CCCC[C@@](C)(OC)[C@H](O)/C=C/C1[C@H](O)CC(=O)[C@@H]1C/C=C\\CCCC(=O)OC (stereo partly drawn)", -2.14],
  ["CCCC[C@](C)(OC)[C@H](O)/C=C/C1[C@H](O)CC(=O)[C@@H]1C/C=C\\CCCC(=O)OC (stereo partly drawn)", -0.30],
  ["CCCC[C@@](C)(OC)[C@H](O)/C=C/C1[C@H](O)CC(=O)[C@@H]1CCCCCCC(=O)OC (stereo partly drawn)", -2.35],
  ["CCCC[C@](C)(OC)[C@@H](O)/C=C/C1[C@H](O)CC(=O)[C@@H]1C/C=C\\CCCC(=O)OC (stereo partly drawn)", 0.18]
]}

Reference for the values: ChEMBL document CHEMBL1123220
